experiment: Cardiovascular safety in conscious chair-restrained monkeys, single oral doses; format: in vivo, monkey; conditions: monkey, plasma; 15 mg/kg oral
measurement label: Cmax

                                   molecule  measurement
0  Cc1ccc(COC(=O)N2CC[C@H](CNc3ncccn3)[C@H](F)C2)cc1 [Form II]     ~3000 nM

* * *

assay: Repeated once-daily oral dosing with food (Days 1-7) in healthy subjects, PK and PD; assay type: in vivo, human; details: female, human, plasma, oral, females, all doses pooled, Day 1; read-out: Cmax, Mean (SD)
measurement label: Cmax

>>> df
                                   compound  measurement_label  measurement
0  Cc1ccc(COC(=O)N2CC[C@H](CNc3ncccn3)[C@H](F)C2)cc1 [Form II]               Cmax    270 ng/mL
